Tested on: NCI-H358 cells (K-Ras G12C)
Assay: CellTiter-Glo cell viability, NCI-H358
Type: cell-based, human
Conditions: Homo sapiens, NCI-H358, 120 h, K-Ras G12C, 5-day treatment; read-out: H358 Cell Viability IC50
Experimental: Note—The following protocol describes a procedure for monitoring cell viability of K-Ras mutant cancer cell lines in response to a compound of the invention. Other RAS isoforms may be employed, though the number of cells to be seeded will vary based on cell line used. Test compounds (132.5 nl) were directly dispensed into the assay plates containing cells. […] Luminescence was measured using the PerkinElmer Enspire. […]
pIC50: −log10 of the molar value.
// pIC50 lookup, one value per entry

# count of solved cases: 2
smiles_string=CCn1c(-c2cccnc2[C@H](C)OC)c2c3cc(ccc31)-c1csc(n1)C[C@H](NC(=O)[C@H](C(C)C)N(C)C(=O)N(C)C1CN(C)C1)C(=O)N1CCC[C@H](N1)C(=O)OCC(C)(C)C2 metric_name=pIC50 readout_value="6.00 to 7.00"
smiles_string=CCn1c(-c2cccnc2[C@H](C)OC)c2c3cc(ccc31)-c1cc(O)cc(c1)C[C@H](NC(=O)[C@H](C(C)C)N(C)C(=O)[C@H]1CCN(C(=O)OC3CC3)C1)C(=O)N1CCC[C@H](N1)C(=O)OCC(C)(C)C2 metric_name=pIC50 readout_value="7.00 to 8.00"

INPUT: Recorded pIC50 for CCn1c(-c2cccnc2[C@H](C)OC)c2c3cc(ccc31)-c1csc(n1)C[C@H](NC(=O)[C@H](C(C)C)N(C)C(=O)N1CCC[C@H]1c1ccccc1)C(=O)N1CCC[C@H](N1)C(=O)OCC(C)(C)C2 , please?
OUTPUT: 5.00 to 6.00

INPUT: Recorded pIC50 for CCn1c(-c2cccnc2[C@H](C)OC)c2c3cc(ccc31)-c1cc(O)cc(c1)C[C@H](NC(=O)[C@H](C(C)C)N(C)C(=O)[C@H]1CCN(C(=O)OC3CN(C)C3)C1)C(=O)N1CCC[C@H](N1)C(=O)OCC(C)(C)C2 , please?
OUTPUT: 7.00 to 8.00

INPUT: Recorded pIC50 for CCn1c(-c2cccnc2[C@H](C)OC)c2c3cc(ccc31)-c1cc(O)cc(c1)C[C@H](NC(=O)[C@H](C(C)C)N(C)C(=O)[C@H]1C[C@@H]1O)C(=O)N1CCC[C@H](N1)C(=O)OCC(C)(C)C2 , please?
OUTPUT: 6.00 to 7.00

INPUT: Recorded pIC50 for CCn1c(-c2cccnc2[C@H](C)OC)c2c3cc(ccc31)-c1csc(n1)C[C@H](NC(=O)[C@H](C(C)C)N(C)C(=O)N(C)N(C)C)C(=O)N1CCC[C@H](N1)C(=O)OCC(C)(C)C2 , please?
OUTPUT: 7.00 to 8.00

INPUT: Recorded pIC50 for CCn1c(-c2cccnc2[C@H](C)OC)c2c3cc(ccc31)-c1csc(n1)C[C@H](NC(=O)[C@H](C(C)C)N(C)C(=O)[C@H]1CCN(C(=O)CN(C)C)C1)C(=O)N1CCC[C@H](N1)C(=O)OCC(C)(C)C2 , please?
OUTPUT: 5.00 to 6.00

INPUT: Recorded pIC50 for CCn1c(-c2cccnc2[C@H](C)OC)c2c3cc(ccc31)-c1csc(n1)C[C@H](NC(=O)[C@H](C(C)C)N(C)C(=O)N1CC3(CN(C)C3)C1)C(=O)N1CCC[C@H](N1)C(=O)OCC(C)(C)C2 , please?
OUTPUT: 6.00 to 7.00

INPUT: Recorded pIC50 for CCn1c(-c2cccnc2[C@H](C)OC)c2c3cc(ccc31)-c1csc(n1)C[C@H](NC(=O)[C@H](C(C)C)N(C)C(=O)N1CCO[C@@]3(CCN(C)C3)C1)C(=O)N1CCC[C@H](N1)C(=O)OCC(C)(C)C2 , please?
OUTPUT: 7.00 to 8.00
